Experiment: Selectivity index, ratio of IC50 for equine serum BChE to IC50 for electric eel AChE
We begin with a simple list: items and their reported Ratio IC50.

Recorded Ratio IC50, per entry:
[[record]]
record_smiles = "O=C(NO)c1ccc(S(=O)(=O)NCC2CCN(Cc3ccccc3)CC2)cc1"
measured_property = "Ratio IC50"
value = "> 10"

[[record]]
record_smiles = "Nc1ccccc1NC(=O)c1ccc(S(=O)(=O)NCC2CCN(Cc3ccccc3)CC2)cc1"
measured_property = "Ratio IC50"
value = "> 102"

[[record]]
record_smiles = "Nc1ccccc1NC(=O)c1ccc(/C=C/C(=O)NCC2CCN(Cc3ccccc3)CC2)cc1"
measured_property = "Ratio IC50"
value = "> 10"


Assign Ratio IC50 to the following record: O=C(/C=C/c1ccc(C(=O)NO)cc1)NCC1CCN(Cc2ccccc2)CC1
> 10

Assign Ratio IC50 to the following record: COc1cc(CCC(=O)NO)ccc1C(=O)NCC1CCN(Cc2ccccc2)CC1
> 10

Assign Ratio IC50 to the following record: O=C(/C=C/c1ccc(C(=O)NCC2CCN(Cc3ccccc3)CC2)cc1)NO
> 10
